experimental-protocol: Plasma and liver concentration of antiviral peptides after oral gavage in mice
Format: in vivo, female mice
assay-conditions: female, mouse, plasma, po, 60 mg/kg
Bridge positions count the residues as written; N and C are the ends. Square brackets hold non-standard residues; d marks the D form. Peptide text beside a SMILES is read from it.
reported-metric: level at time molar at 2 h (µM)
Answers are plain numbers, in µM.

Request: Any idea what its level at time molar at 2 h is? The compound is CC(=O)NCC(=O)NCC(=O)N[C@@H](Cc1c[nH]cn1)C(=O)N[C@H]1CC(=O)NCCCC[C@@H](C(=O)N[C@@H](C(=O)N2CCC[C@@H]2C(N)=O)C(C)C)NC(=O)[C@H](CCCCN)NC(=O)[C@H](Cc2ccccc2)NC(=O)[C@H](CCCNC(=N)N)NC(=O)[C@H](Cc2ccc(O)cc2)NC(=O)[C@@H]2CCCN2C1=O [TCMP03] (Ac-GGHDPYRFKK[dV][dP]-NH2; lactam 4-10)
Response: 75.7

====

experimental-protocol: Pharmacokinetics of TCMCB07 in anesthetized rats: plasma and bile levels
Assay type: in vivo, Sprague-Dawley rats
assay-conditions: Sprague-Dawley, rat, plasma, sc, 3 mg/kg
Bridge positions count the residues as written; N and C are the ends. Square brackets hold non-standard residues; d marks the D form. Peptide text beside a SMILES is read from it. d2Nal = N[C@H](Cc1ccc2ccccc2c1)C(=O)O; Nle = CCCC[C@H](N)C(=O)O
reported-metric: Tmax (h)
Give bare numbers, in h.

Request: What does the data say about its Tmax? Entry: CCCC[C@H](NC(C)=O)C(=O)N[C@H]1CC(=O)NCCCC[C@@H](C(=O)N[C@@H](C(=O)N2CCC[C@@H]2C(N)=O)C(C)C)NC(=O)[C@H](Cc2c[nH]c3ccccc23)NC(=O)[C@H](CCCN=C(N)N)NC(=O)[C@@H](Cc2ccc3ccccc3c2)NC(=O)[C@@H]2CCCN2C1=O [TCMCB07] (Ac-[Nle]DP[d2Nal]RWK[dV][dP]-NH2; lactam 2-7)
Response: 2.5

====

experimental-protocol: Plasma and liver concentration of antiviral peptides after oral gavage in mice
Assay type: in vivo, female mice
assay-conditions: female, mouse, liver, po, 60 mg/kg
Bridge positions count the residues as written; N and C are the ends. Square brackets hold non-standard residues; d marks the D form. Peptide text beside a SMILES is read from it.
reported-metric: level at time molar at 0.5 h (nM)
Give bare numbers, in nM.

Request: Recorded level at time molar at 0.5 h for CC(=O)NCC(=O)NCC(=O)N[C@@H](Cc1c[nH]cn1)C(=O)N[C@H]1CC(=O)NCCCC[C@@H](C(=O)N[C@@H](C(=O)N2CCC[C@@H]2C(N)=O)C(C)C)NC(=O)[C@H](CCCCN)NC(=O)[C@H](Cc2ccccc2)NC(=O)[C@H](CCCNC(=N)N)NC(=O)[C@H](Cc2ccc(O)cc2)NC(=O)[C@@H]2CCCN2C1=O [TCMP03] (Ac-GGHDPYRFKK[dV][dP]-NH2; lactam 4-10) , please?
Response: 43

====

experimental-protocol: Plasma and liver concentration of antiviral peptides after oral gavage in mice
Type: in vivo, female mice
assay-conditions: female, mouse, liver, po, 60 mg/kg
Bridge positions count the residues as written; N and C are the ends. Square brackets hold non-standard residues; d marks the D form. Peptide text beside a SMILES is read from it.
reported-metric: level at time molar at 4 h (nM)
One number for each entry, in nM.

Request: Report level at time molar at 4 h for CC(=O)NCC(=O)NCC(=O)N[C@@H](Cc1c[nH]cn1)C(=O)N[C@H]1CC(=O)NCCCC[C@@H](C(=O)N[C@@H](C(=O)N2CCC[C@@H]2C(N)=O)C(C)C)NC(=O)[C@H](CCCCN)NC(=O)[C@H](Cc2ccccc2)NC(=O)[C@H](CCCNC(=N)N)NC(=O)[C@H](Cc2ccc(O)cc2)NC(=O)[C@@H]2CCCN2C1=O [TCMP03] (Ac-GGHDPYRFKK[dV][dP]-NH2; lactam 4-10) please.
Response: 4
